Hello, the source for this data is ChEMBL document CHEMBL5316339, in case you need it.

- run_description: Drug concentration in Sprague-Dawley rat brain at 10 mg/kg, po measured after 2 hrs
- Type: ADME, organism-based
- stated_conditions: read-out: Ct

# query_smiles, concentration at 2 h
records = [
    ("COCc1ccnc(OCc2cn(-c3ccc(F)c(OC(F)F)c3)nn2)n1", "47 ng/g"),
    ("FC(F)Oc1cc(-n2cc(COc3ncccn3)nn2)ccc1Cl", "3010 ng/g"),
]

###

Target or system Cytochrome P450 2D6 (Homo sapiens, UniProt P10635); recorded quantity IC50.
property_label: IC50

# query_smiles, tested_system, result
records = [
    ("FC(F)Oc1cc(-n2cc(COc3ncccn3)nn2)ccc1Cl", "Cytochrome P450 2D6 (Homo sapiens, UniProt P10635)", "> 10 µM"),
    ("COCc1ccnc(OCc2cn(-c3ccc(F)c(OC(F)F)c3)nn2)n1", "Cytochrome P450 2D6 (Homo sapiens, UniProt P10635)", "> 10 µM"),
]

###

Parameter: efflux ratio at 1 h, 5 µM. Scope: all listed entries.
- Test system: MDR1 (P-gp)
- run_description: Efflux ratio of apparent permeability from basolateral to apical side over apical to basolateral side in MDCK-MDR1 cells at 5 uM incubated for 60 mins by LC-MS/MS analysis
- Type: ADME, cell-based, Canis lupus familiaris
- stated_conditions: dog
property_label: efflux ratio at 1 h, 5 µM

# query_smiles, measured_number
data = [
    ("FC(F)Oc1cc(-n2cc(CNc3ncccn3)nn2)ccc1Cl", 1.1),
    ("Cc1ccnc(OCc2cn(-c3ccc(F)c(OC(F)F)c3)nn2)n1", 0.9),
    ("Cc1cnc(OCc2cn(-c3ccnc(C)c3)nn2)nc1", 1.2),
    ("CNc1ccnc(OCc2cn(-c3ccc(F)c(OC(F)F)c3)nn2)n1", 7.7),
    ("FC(F)Oc1cc(-n2cc(COc3ccncn3)nn2)ccc1Cl", 1.1),
    ("CC(C)(O)c1cnc(OCc2cn(-c3ccc(F)c(OC(F)F)c3)nn2)nc1", 11.8),
    ("Fc1ccc(-n2cc(COc3nccc(N4CC(F)C4)n3)nn2)cc1OC(F)F", 2.6),
    ("FC(F)Oc1cc(-n2cc(COc3ncccn3)nn2)ccc1Cl", 1),
    ("FC(F)Oc1cc(-n2cc(CNc3ccccn3)nn2)ccc1Cl", 1),
    ("FC(F)Oc1cc(-n2cc(COc3cnccn3)nn2)ccc1Cl", 0.91),
    ("COCc1ccnc(OCc2cn(-c3ccc(F)c(OC(F)F)c3)nn2)n1", 1.1),
]

###

- run_description: Drug concentration in Sprague-Dawley rat brain assessed as free fraction
- Assay type: ADME, tissue-based

# query_smiles, fraction unbound
data = [
    ("FC(F)Oc1cc(-n2cc(COc3ncccn3)nn2)ccc1Cl", 0.051),
    ("COCc1ccnc(OCc2cn(-c3ccc(F)c(OC(F)F)c3)nn2)n1", 0.0882),
]

###

- run_description: Oral bioavailability in Sprague-Dawley rat at 5 mg/kg measured for 24 hrs by LC-MS/MS analysis
- Type: ADME, organism-based
- stated_conditions: in vivo
Here the recorded bioavailability is given for each entry.
property_label: bioavailability (%)

# query_smiles, uom, measured_number
data = [
    ("FC(F)Oc1cc(-n2cc(COc3ncccn3)nn2)ccc1Cl", "%", 78),
    ("COCc1ccnc(OCc2cn(-c3ccc(F)c(OC(F)F)c3)nn2)n1", "%", 42),
]

###

- run_description: Plasma protein binding in Sprague-Dawley rat assessed as free fraction
- Format: ADME, cell-free
This listing pairs molecules with measured fraction unbound.

# query_smiles, fraction unbound
rows = [
    ("COCc1ccnc(OCc2cn(-c3ccc(F)c(OC(F)F)c3)nn2)n1", 0.0236),
    ("FC(F)Oc1cc(-n2cc(COc3ncccn3)nn2)ccc1Cl", 0.024),
]

###

- run_description: Thermodynamic solubility in aqueous phosphate buffer at pH 2
- Format: physicochemical
- stated_conditions: read-out: Therm_solubility

# query_smiles, readout_qualifier, solubility thermodynamic, µM
data = [
    ("Cc1cnc(OCc2cn(-c3cccc(C(F)F)c3)nn2)nc1", "=", 17),
    ("CNc1ccnc(OCc2cn(-c3ccc(F)c(OC(F)F)c3)nn2)n1", ">", 400),
    ("Cc1cnc(OCc2cn(-c3ccnc(C)c3)nn2)nc1", "=", 560),
    ("Fc1ccc(-n2cc(COc3nccc(N4CC(F)C4)n3)nn2)cc1OC(F)F", ">", 400),
    ("Cc1ccnc(OCc2cn(-c3ccc(F)c(OC(F)F)c3)nn2)n1", "=", 92),
    ("CC(C)(O)c1cnc(OCc2cn(-c3ccc(F)c(OC(F)F)c3)nn2)nc1", "=", 560),
]

###

# Cmax per entry
- run_description: Cmax in Sprague-Dawley rat at 5 mg/kg, po measured for 24 hrs by LC-MS/MS analysis
- Type: ADME, organism-based
- Set-up: time 24 hrs, dose 5 mg/kg, route po
- stated_conditions: in vivo

# query_smiles, Cmax (µg/mL)
measured = [
    ("FC(F)Oc1cc(-n2cc(COc3ncccn3)nn2)ccc1Cl", 0.808),
    ("COCc1ccnc(OCc2cn(-c3ccc(F)c(OC(F)F)c3)nn2)n1", 1.63),
]

###

solubility thermodynamic by entry:
- run_description: Thermodynamic solubility in aqueous phosphate buffer at pH 2
- Format: physicochemical
- stated_conditions: read-out: Therm_solubility

# query_smiles, uom, solubility thermodynamic
data = [
    ("COCc1ccnc(OCc2cn(-c3ccc(F)c(OC(F)F)c3)nn2)n1", "µM", 280),
    ("Nc1nc(OCc2cn(-c3ccc(F)c(OC(F)F)c3)nn2)ncc1F", "µM", 560),
    ("Fc1ccc(-n2cc(COc3ncc(N4CCC4)cn3)nn2)cc1OC(F)F", "µM", 11),
    ("Cc1cnc(OCc2nnn(-c3cccc(C(F)F)c3)c2C)nc1", "µM", 210),
]

###

- run_description: Unbound brain to plasma concentration ratio in Sprague-Dawley rat at 10 mg/kg, po measured after 0.5 hrs
- Assay type: ADME, organism-based
- stated_conditions: brain and plasma, read-out: K(p,uu,brain)
Kp uu at 0.5 h values, listed per item
property_label: Kp uu at 0.5 h

# query_smiles, measured_number
data = [
    ("FC(F)Oc1cc(-n2cc(COc3ncccn3)nn2)ccc1Cl", 0.78),
    ("COCc1ccnc(OCc2cn(-c3ccc(F)c(OC(F)F)c3)nn2)n1", 0.65),
]

###

- run_description: Metabolic stability in rat liver microsomes assessed as extraction ratio
- Type: ADME, Microsome
- stated_conditions: read-out: ERH
property_label: hepatic extraction ratio

# query_smiles, property_label, readout_qualifier, measured_number
rows = [
    ("COCc1ccnc(OCc2cn(-c3ccc(F)c(OC(F)F)c3)nn2)n1", "hepatic extraction ratio", "=", 0.6),
    ("Cc1cnc(OCc2cn(-c3ccc(F)c(OC(F)F)c3)nn2)nc1", "hepatic extraction ratio", "=", 0.37),
    ("C[C@@H](Oc1ncccn1)c1cn(-c2ccc(Cl)c(OC(F)F)c2)nn1", "hepatic extraction ratio", "<", 0.17),
    ("Cc1cnc(OCc2cn(-c3ccc(Cl)c(OC(F)F)c3)nn2)nc1", "hepatic extraction ratio", "=", 0.51),
]

###

- tested_system: Cytochrome P450 2C9 (Homo sapiens)
- Sequence (P11712 whole entry): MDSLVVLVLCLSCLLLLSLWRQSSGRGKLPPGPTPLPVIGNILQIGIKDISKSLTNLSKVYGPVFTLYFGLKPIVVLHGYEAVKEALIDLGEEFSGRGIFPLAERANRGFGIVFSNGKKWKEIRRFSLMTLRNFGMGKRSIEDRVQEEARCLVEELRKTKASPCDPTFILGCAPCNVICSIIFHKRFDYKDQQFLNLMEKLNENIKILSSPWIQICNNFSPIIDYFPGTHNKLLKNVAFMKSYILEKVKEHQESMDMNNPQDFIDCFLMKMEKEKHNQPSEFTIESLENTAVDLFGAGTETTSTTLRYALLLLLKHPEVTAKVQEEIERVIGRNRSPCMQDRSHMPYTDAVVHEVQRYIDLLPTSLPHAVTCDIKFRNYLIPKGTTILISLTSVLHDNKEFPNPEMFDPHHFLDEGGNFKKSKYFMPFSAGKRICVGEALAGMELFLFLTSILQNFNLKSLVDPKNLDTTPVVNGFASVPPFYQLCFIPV

# query_smiles, IC50
rows = [
    ("FC(F)Oc1cc(-n2cc(CNc3ncccn3)nn2)ccc1Cl", "> 10 µM"),
]

###

- run_description: Solubility in aqueous buffer at pH 2
- Format: physicochemical
property_label: solubility (µM)

# query_smiles, measured_number
rows = [
    ("Cc1cnc(OCc2cn(-c3ccc(F)c(OC(F)F)c3)nn2)nc1", 7.6),
]

###

- run_description: Drug concentration in Sprague-Dawley rat plasma at 10 mg/kg, po measured after 6 hrs
- Assay type: ADME, organism-based
property_label: concentration at 6 h (ng/mL)

# query_smiles, property_label, measured_number
records = [
    ("COCc1ccnc(OCc2cn(-c3ccc(F)c(OC(F)F)c3)nn2)n1", "concentration at 6 h", 6.7),
]

###

- Test system: MDR1 (P-gp)
- run_description: Efflux ratio of apparent permeability from basolateral to apical side over apical to basolateral side in MDCK-MDR1 cells at 5 uM incubated for 60 mins by LC-MS/MS analysis
- Format: ADME, cell-based, Canis lupus familiaris
- stated_conditions: dog
efflux ratio at 1 h, 5 µM less than 1 is TRUE; efflux ratio at 1 h, 5 µM greater than or equal to 1 is FALSE.

# query_smiles, category
records = [
    ("FC(F)Oc1cc(-n2cc(Cn3ccnc3)nn2)ccc1Cl", "FALSE"),
    ("FC(F)Oc1cc(-n2cc(CNc3ncco3)nn2)ccc1Cl", "FALSE"),
    ("Cc1cnc(OCc2cn(-c3ccc(F)c(OC(F)F)c3)nn2)nc1", "TRUE"),
    ("Nc1nc(OCc2cn(-c3ccc(F)c(OC(F)F)c3)nn2)ncc1F", "FALSE"),
]
